Test system: EKVX NSCLC
testProtocol: NCI tumour cell line growth inhibition, 48 h

# molecule, TGI
records = [
    ("COc1ccc(C2COc3c(ccc(OC)c3OC)C2=O)cc1OC (stereo unspecified)", "> 100 µM"),
    ("O=C(CC(NC(=O)OCc1ccccc1)C(=O)NC1Cc2ccccc2C1=O)OCc1ccccc1 (stereo unspecified)", "> 100 µM"),
    ("O=C1CSC(c2c[nH]c3ccccc23)N1c1cccc(Cl)c1 (stereo unspecified)", "> 100 µM"),
    ("COC(=O)N[C@H]1CCc2cc(OC)c(OC)c(OC)c2-c2ccc(SC)c(=O)cc21", "> 100 µM"),
    ("O=C(N/N=C/c1ccc(Cl)cc1)c1ccc(NC(=O)c2ccccn2)cc1", "> 100 µM"),
    ("O=c1nc2n(-c3cccc(Cl)c3)c3ccc([N+](=O)[O-])cc3cc-2c(=O)[nH]1", "> 25 µM"),
    ("CCN(CC)C(=O)CCn1ccc(=O)[nH]c1=O", "> 100 µM"),
    ("CCNC1=C(NC(=O)c2ccc(F)cc2)C(=O)c2ccccc2C1=O", "> 100 µM"),
    ("C/C=C1/CC(C(=O)OC)N(C(=O)OCc2ccccc2)C1=S (stereo unspecified)", "> 100 µM"),
    ("CN(C)CCNC(=O)c1cc2c3cc(Cl)ccc3[nH]c2c2ncccc12", "12.7 µM"),
    ("Nc1ccc(/C=C/c2ccc3ncccc3c2)cc1", "> 100 µM"),
]

---

Tested on: SF-268 CNS
testProtocol: NCI tumour cell line growth inhibition, 48 h
In this section, each of the compounds is paired with its reported TGI.
assayMetric: TGI (µM)

# compound, assayMetric, valueRelationSign, observedResult
records = [
    ("COc1ccc2c(c1)[C@@H](NC(C)=O)CCc1cc(OC)c(OC)c(OC)c1-2", "TGI", ">", 90.4),
    ("CN(C)CCNc1ccc(NCC[N+](C)(C)Cc2ccc([N+](=O)[O-])cc2)c2c1C(=O)c1c(O)ccc(O)c1C2=O", "TGI", ">", 100),
    ("CC(=O)OCC1C(=O)OCC1C(=O)N1Cc2cc3ccccc3nc2C1 (centres undefined)", "TGI", "=", 22.6),
    ("O=c1nc2n(-c3cccc(Cl)c3)c3ccc([N+](=O)[O-])cc3cc-2c(=O)[nH]1", "TGI", "=", 13.3),
    ("O=C1NC(=O)C(c2c[nH]c3ccccc23)=C1c1c[nH]c2ccccc12", "TGI", ">", 25),
    ("N#CC(C(=O)CCCC(=O)Nc1ccccc1[N+](=O)[O-])c1c(Cl)cccc1Cl (centres undefined)", "TGI", ">", 100),
    ("CC(=O)N1C/C(=C\\c2ccccc2)C(=O)/C(=C/c2ccccc2)C1", "TGI", "=", 66.1),
    ("N=c1sc2ccccc2n1CCS (tested in a mixture with another compound)", "TGI", "=", 49.1),
    ("NC(N)=N/N=C/c1c(-c2ccccc2[N+](=O)[O-])nc2sccn12", "TGI", ">", 100),
]

---

Tested on: KM20L2 colon
testProtocol: NCI tumour cell line growth inhibition, 48 h
Listed next: entries and their corresponding TGI.
assayMetric: TGI

# molecule, observedResult
data = [
    ("CN1C2CCC1/C(=C/c1cccc3c1OCO3)C(=O)/C2=C\\c1cccc2c1OCO2", "> 100 µM"),
    ("CC(=O)N1C/C(=C\\c2ccccc2)C(=O)/C(=C/c2ccccc2)C1", "39.5 µM"),
    ("Cc1c(C(Cc2ccccc2N(C)C(=O)/C=C\\C(=O)O)c2c[nH]c3ccccc23)c2ccccc2n1C (stereo not drawn)", "32.7 µM"),
    ("N/N=c1/nc2n(c3ncccc13)C=CNN2", "> 100 µM"),
    ("Cc1cc(N(CCC#N)CCC#N)ccc1/C=C(\\NC(=O)/C=C/c1ccccc1)C(=O)N=[N+]=[N-]", "> 100 µM"),
    ("Cc1c2cnccc2c(C)c2c1c1ccccc1n2CCOC(=O)c1ccccc1", "50.5 µM"),
    ("CC(=O)OCC1C(=O)OCC1C(=O)N1Cc2cc3ccccc3nc2C1 (stereo not drawn)", "11 µM"),
    ("O=P1(NCCCl)OCCCN1CCCl (stereo not drawn)", "434 µM"),
    ("O=S1OC(c2ccccc2)(c2ccccc2)C(c2ccccc2)(c2ccccc2)O1", "> 100 µM"),
    ("CN(C)CCC(N)(P(=O)([O-])[O-])P(=O)([O-])[O-].N.N.[Pt+2]", "> 100 µM"),
    ("CN(C)CC1CC/C(=C\\c2ccc(Cl)c(Cl)c2)C1=O (stereo not drawn)", "> 50.2 µM"),
    ("CCOC(=O)CC1=N/C(=N/C(=N)N[N+](=O)[O-])SC1", "> 100 µM"),
    ("CCN(CC)C(=O)CCn1ccc(=O)[nH]c1=O", "> 100 µM"),
]
